Data provenance: ChEMBL document CHEMBL4014354

Tested on: Hepatitis C virus
method-description: Antiviral activity against HCV genotype 3a infected in human HuH7 cells assessed as inhibition of viral RNA replication after 96 hrs by RT-PCR method
Type: functional, cell-based, Hepacivirus hominis
conditions-used: Huh-7, 96 h
Could you please report measured pIC50 for the items listed next?
Give bare numbers, as −log10 of the molar value.

I'm hoping you can list pIC50 for every compound here, please.
1. CC(C)OC(=O)[C@H](C)NP(=O)(OC[C@H]1O[C@@H](n2ccc(=O)[nH]c2=O)[C@@](F)(Cl)[C@@H]1O)Oc1ccccc1 (mixture of isomers)
2. CC(C)OC(=O)[C@H](C)N[P@](=O)(OC[C@H]1O[C@@H](n2ccc(=O)[nH]c2=O)[C@](C)(F)[C@@H]1O)Oc1ccccc1

1. 6.82
2. 7.05

====

Tested on: Hepatitis C virus
method-description: Antiviral activity against HCV genotype 2a/k infected in human HuH7 cells assessed as inhibition of viral RNA replication after 96 hrs by RT-PCR method
Type: functional, cell-based, Hepacivirus hominis
conditions-used: Huh-7, 96 h
Could you please report measured IC50 for the items listed next?
One number for each entry, in nM.

{"compound": "CC(C)OC(=O)[C@H](C)N[P@](=O)(OC[C@H]1O[C@@H](n2ccc(=O)[nH]c2=O)[C@](C)(F)[C@@H]1O)Oc1ccccc1", "IC50 / nM": 20}

Given the entry CC(C)OC(=O)[C@H](C)NP(=O)(OC[C@H]1O[C@@H](n2ccc(=O)[nH]c2=O)[C@@](F)(Cl)[C@@H]1O)Oc1ccccc1 (mixture of isomers) , report its measured IC50.
50

====

method-description: Cytotoxicity against human HuH7 cells assessed as inhibition of cell proliferation after 4 days by MTS assay
Assay type: cell-based, Huh-7
measurement-label: CC50 at 96 h

I'm hoping you can list CC50 at 96 h for every molecule here, please.
1. CC(C)OC(=O)[C@H](C)NP(=O)(OC[C@H]1O[C@@H](n2ccc3c(N)ncnc32)C(F)(Cl)C1O)Oc1ccccc1 (single isomer, unassigned)
2. CC(C)OC(=O)[C@H](C)NP(=O)(OC[C@H]1O[C@@H](n2cnc3c(N)ncnc32)C(F)(Cl)C1O)Oc1ccccc1 (single isomer, unassigned)

["> 10 µM", "> 33 µM"]

====

method-description: Metabolic stability in human intestinal microsomes assessed as compound remaining after 60 mins
Format: ADME, Intestine, Microsome
conditions-used: read-out: Stability
measurement-label: remaining at 1 h (%)
One number for each entry, in %.

Given the entry CC(C)OC(=O)[C@H](C)NP(=O)(OC[C@H]1O[C@@H](n2ccc(=O)[nH]c2=O)[C@@](F)(Cl)[C@@H]1O)Oc1ccccc1 (mixture of isomers) , report its measured remaining at 1 h.
79

====

Could you please report measured IC50 for the items listed next?
test-system: DNA polymerase beta (Homo sapiens)
method-description: Inhibition of human DNA polymerase beta using 5' end radiolabeled 24nt DNA/48nt DNA as primer/template after 5 mins by PAGE analysis

I'm hoping you can list IC50 for every compound here, please.
1. Cc1cn([C@H]2CC[C@@H](COP(=O)(O)OP(=O)(O)OP(=O)(O)O)O2)c(=O)[nH]c1=O
2. O=c1ccn([C@@H]2O[C@H](COP(=O)(O)OP(=O)(O)OP(=O)(O)O)C(O)C2(F)Cl)c(=O)[nH]1 (single isomer, unassigned)
3. C[C@@]1(F)[C@H](O)[C@@H](COP(=O)(O)OP(=O)(O)OP(=O)(O)O)O[C@H]1n1ccc(=O)[nH]c1=O

1. 19 µM
2. > 100 µM
3. > 100 µM
